B1: Lysine-specific demethylase 2B, residues 656 to 722; numbered along this chain, Q8NHM5 (parent)
chain: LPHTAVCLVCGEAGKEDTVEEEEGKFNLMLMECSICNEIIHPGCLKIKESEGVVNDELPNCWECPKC

Variants of: B1
test_summary: abundance fitness (aPCA) (normalised: wild type 0, dead -1); higher = more abundant; growth selection in yeast, the domain comes from the species named
run_conditions: Homo sapiens
experimental_readout: abundance fitness

Consider the reported abundance fitness for these variants:
LPHTAVCLVCGEAGKEDTVEEEEGKFNLMLMECSICNEIIHPGCLKIKESEGVVNDELPNCWPCPKC [E63P] :: -0.968
LPHTAVCLVCGEAGKEDTVEEEEGKFNLMLMECSICNEIIHPGCLKIKESEGVVNDELPNCWECPAC [K66A] :: -0.425
LPHTAVCLVYGEAGKEDTVEEEEGKFNLMLMECSICNEIIHPGCLKIKESEGVVNDELPNCWECPKC [C10Y] :: -0.66
LPHTAVCLVCGEAGKEDTVEEEEGKFILMLMECSICNEIIHPGCLKIKESEGVVNDELPNCWECPKC [N27I] :: -0.275
LPHTAVCLVCGEAGKEDTVEEEEGKFNLMLMEKSICNEIIHPGCLKIKESEGVVNDELPNCWECPKC [C33K] :: -0.6
LPHTAVCLVCGEAGKEDTVEEEEGKFNLMLMETSICNEIIHPGCLKIKESEGVVNDELPNCWECPKC [C33T] :: -0.753
LPHTAVCLVCGEAGKEDTVEEEEGKFNLMLMECSICNEIIHPGCLKIKESEGVVNDALPNCWECPKC [E57A] :: 0.053
LPHTAVALVCGEAGKEDTVEEEEGKFNLMLMECSICNEIIHPGCLKIKESEGVVNDELPNCWECPKC [C7A] :: -0.691
LPHTAVCLVCGEAGKEDTVEEEEGKFNLMLMECSICNEIIHPGCLIIKESEGVVNDELPNCWECPKC [K46I] :: -0.311
LPHTAVCLVCGEAWKEDTVEEEEGKFNLMLMECSICNEIIHPGCLKIKESEGVVNDELPNCWECPKC [G14W] :: -0.635

Lab book: abundance fitness of LPHTAVCLVCGEAGKEDTVEEEEGKFNLMLMECSICNEIIHPGCLKIKESEGVVQDELPNCWECPKC [N55Q] noted as -0.189

The measured abundance fitness associated with LPHTAVCLVCGEAGKEDTVEEEEGKFNLMLMECSICNEIIHPWCLKIKESEGVVNDELPNCWECPKC [G43W] reads -0.52

The variant listed as LPHTAVCLVCGEAGKEDTVEEEEGKFNLMLMECSICNEIIHPGCLKIMESEGVVNDELPNCWECPKC [K48M] shows abundance fitness equal to 0.157
